Entries annotated with measured solubility kinetic at 1 h
test-description: Kinetic solubility of the compound in pH 7.4 phosphate buffered saline measured after 1 hr
Format: physicochemical
settings: read-out: Kinetic_solubility
metric: solubility kinetic at 1 h (µg/mL)

- compound: "CNCC(=O)Nc1ccc(-c2nc(C(C)(C)S(C)(=O)=O)cc([C@]34CCOC[C@H]3C4)n2)cc1"
  data-value: 217
- compound: "C[C@H]1COCCN1c1cc(CS(C)(=O)=O)nc(-c2cccc(O)c2)n1"
  data-value: 113
- compound: "CC(C)(c1cc([C@]23CCOC[C@H]2C3)nc(-c2cccc(O)c2)n1)S(C)(=O)=O"
  data-value: 135
- compound: "Oc1cccc(-c2nccc(N3CCOCC3)n2)c1"
  data-value: 107
- compound: "CCNC(=O)Nc1ccc(-c2nc(N3CCOC[C@@H]3C)cc(C(C)(C)S(C)(=O)=O)n2)cc1"
  data-value: 130

FYI, the data here is from ChEMBL document CHEMBL4311944.
